method-notes: inhibitors of TNFa-induced NFkB p65 translocation, primary screen, imaging, HUVEC, MLSMR starter and 10KST1 sets (AID 438);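 further: compound added about 3h40 before a 20 min TNFalpha stimulation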
run-parameters: HUVEC TNFa-induced p65 nuclear translocation; measured here: nuclei count (cytotoxicity indicator), at 2.08 µM
For each entry below, report its cell count value.
Write the number on its own, no unit after it.

Exercise: Quick check: cell count of Cc1ccccc1N1CC(c2nc3ccccc3[nH]2)CC1=O (stereo unspecified) ?
Solution: 385

Exercise: Quick check: cell count of `COC(=O)c1[nH]c2ccccc2c1NC(=O)CN1CCC(C(N)=O)(N2CCCCC2)CC1` ?
Solution: 259

Exercise: Quick check: cell count of `CS(=O)(=O)N(CC(=O)NCc1ccccn1)c1ccc2c(c1)OCCO2` ?
Solution: 755

Exercise: Quick check: cell count of `CC(C)=CCSc1nnc(CCNC(=O)OC(C)(C)C)o1` ?
Solution: 391

Exercise: Quick check: cell count of `CCSc1nc(C)nc2c1oc1ccccc12` ?
Solution: 407

Exercise: Quick check: cell count of `CCCc1cc(=O)n2[nH]cnc2n1` ?
Solution: 285

----------
method-notes: reduction of polyQ htt aggregates in cells – imaging, exon1htt(103Q)mCFP cells, high-content imaging, primary screen (AID 483);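 further: compound exposure lasted 3 days before fixation; percent of the per-plate median nuclei count of sample wells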
run-parameters: exon1htt(103Q)mCFP cell line, aggregate imaging, at 2 µM; measured here: cell count, toxicity
test-readout: nuclei count (%)
All answers are understood in %, so give the number only.

Exercise: Quick check: nuclei count of `O=C(OCc1cccs1)c1ccccc1NS(=O)(=O)c1ccc2c(c1)OCCO2` ?
Solution: 84.5

Exercise: Quick check: nuclei count of `CCOC(=O)CNC(=O)Cn1cnc2c(nnn2-c2cccc(Cl)c2)c1=O` ?
Solution: 140

Exercise: Quick check: nuclei count of `Cc1cc(C(=O)N2CCN(C(c3ccccc3)c3ccccc3)CC2)no1` ?
Solution: 73.4

Exercise: Quick check: nuclei count of CCOc1ccc(C(c2nnnn2Cc2ccccc2)N2CCN(C(=O)c3ccco3)CC2)cc1 (stereo unspecified) ?
Solution: 101

Exercise: Quick check: nuclei count of `CCCOc1nc(N)c(C#N)c(-c2ccccc2F)c1C#N` ?
Solution: 98.5

Exercise: Quick check: nuclei count of `Oc1c(I)cc(Cl)c2cccnc12` ?
Solution: 76.8

Exercise: Quick check: nuclei count of CC1Cc2cc(/C(O)=C3/C(=O)C(=O)N(CCN4CCOCC4)C3c3cccc(O)c3)ccc2O1 (stereo unspecified) ?
Solution: 105

Exercise: Quick check: nuclei count of `Fc1c(F)c(F)c(CSc2nc3ccccc3[nH]2)c(F)c1F` ?
Solution: 82.8

Exercise: Quick check: nuclei count of `COc1ccccc1C(=O)Nc1ccc(N2CCN(S(C)(=O)=O)CC2)cc1` ?
Solution: 127

Exercise: Quick check: nuclei count of CC(NC(=O)OCc1ccccc1)C(=O)N1CC(O)CC1C(=O)O (stereo unspecified) ?
Solution: 79.3

Exercise: Quick check: nuclei count of `COc1cc(OC)cc(-c2nnc(Nc3nc4c(F)cccc4s3)o2)c1` ?
Solution: 84.3

----------
method-notes: reduction of polyQ htt aggregates in cells – imaging, exon1htt(103Q)mCFP cells, high-content imaging, primary screen (AID 483);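 further: compound exposure lasted 3 days before fixation; percent of the per-plate median nuclei count of sample wells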
run-parameters: exon1htt(103Q)mCFP cell line, aggregate imaging, at 2 µM; measured here: cell count, toxicity
Where a SMILES comes first, the peptide text is derived from it. The star is where a group is joined. Boc = CC(C)(C)OC(=O)*
For each entry below, report its nuclei count value.
All answers are understood in %, so give the number only.

Exercise: Quick check: nuclei count of `COCCn1c(N)c(C(=O)Nc2sc3c(c2C(=O)OC)CCCC3)c2nc3ccccc3nc21` ?
Solution: 84.1

Exercise: Quick check: nuclei count of `Cn1nnnc1SCC(=O)Nc1ccccc1C(=O)NCc1ccccc1` ?
Solution: 98.6

Exercise: Quick check: nuclei count of `COc1ccc(OC)c(CNC(=O)CCN2C(=O)COc3ccccc32)c1` ?
Solution: 64

Exercise: Quick check: nuclei count of CCCCC(CC)C(=O)Nc1ccccc1C#N (stereo not drawn) ?
Solution: 106

Exercise: Quick check: nuclei count of `N#Cc1cc2sc3nnc(-c4ccncc4)n3c2cc1C#N` ?
Solution: 49.6

Exercise: Quick check: nuclei count of `C=C(C)c1cccc(C(C)(C)NC(=O)Nc2ncccn2)c1` ?
Solution: 106

Exercise: Quick check: nuclei count of `CCSc1nnc(NC(=O)c2cc(C)oc2C)s1` ?
Solution: 98.6

Exercise: Quick check: nuclei count of `CCN1CCN(Cc2ccc(NC(=O)Nc3ccc(SC)cc3)cc2)CC1` ?
Solution: 97.3

Exercise: Quick check: nuclei count of `COc1ccc(OC)c(S(=O)(=O)Nc2ccccc2C(=O)O)c1` ?
Solution: 100

Exercise: Quick check: nuclei count of CCCC(=O)N=C1SC2CS(=O)(=O)CC2N1c1ccc(CC)cc1 (stereo not drawn) ?
Solution: 87

Exercise: Quick check: nuclei count of `CS(=O)(=O)N1CCc2cc(C(=O)N3CCCCC3)ccc21` ?
Solution: 100

Exercise: Quick check: nuclei count of `Cc1cc(C)c2oc(=O)cc(CN3CCOCC3)c2c1` ?
Solution: 87.2

Exercise: Quick check: nuclei count of `Cc1ccc(CCNC(=O)C2CCN(S(=O)(=O)c3cccc4nsnc34)CC2)cc1` ?
Solution: 96.4

Exercise: Quick check: nuclei count of `CCCNS(=O)(=O)c1ccc(OCC(=O)Nc2ccccc2F)cc1` ?
Solution: 99.5

Exercise: Quick check: nuclei count of COC(=O)C1=C(C)NC(=O)C1(NC(=O)c1cccnc1)C(F)(F)F (stereo not drawn) ?
Solution: 87.8

Exercise: Quick check: nuclei count of `Brc1ccc(-c2cn3cccnc3n2)cc1` ?
Solution: 121

Exercise: Quick check: nuclei count of `Cc1ncc([N+](=O)[O-])n1CCO` ?
Solution: 76.5

Exercise: Quick check: nuclei count of `Cc1ccc(CCNC(=O)Cn2cccc2)cc1` ?
Solution: 105

Exercise: Quick check: nuclei count of O=C(NC1CCCCC1)C(c1ccco1)N(Cc1cccnc1)C(=O)C1COc2ccccc2O1 (stereo not drawn) ?
Solution: 111

Exercise: Quick check: nuclei count of `CCN(CC)C(=O)CN(c1cc(Cl)ccc1OC)S(C)(=O)=O` ?
Solution: 108

Exercise: Quick check: nuclei count of `CN(CC(=O)N1CCN(c2ccc(F)cc2)CC1)S(=O)(=O)c1ccc(F)cc1` ?
Solution: 103

Exercise: Quick check: nuclei count of `O=C1c2ccccc2C(=O)N1OCc1ccccc1` ?
Solution: 80.1

Exercise: Quick check: nuclei count of O=C(NC12CC3CC(CC(C3)C1)C2)C1CCCN1C(=O)NC1CCCCC1 (stereo not drawn) ?
Solution: 96.2

Exercise: Quick check: nuclei count of `O=C(Cc1cccs1)Nc1ccccc1C(=O)O` ?
Solution: 99.5

Exercise: Quick check: nuclei count of `C=CCSc1nnc(-c2ccccc2NC(C)=O)c(=O)[nH]1` ?
Solution: 102

Exercise: Quick check: nuclei count of `Cc1cc(NC(=O)COC(=O)c2cccc(S(=O)(=O)N3CCOCC3)c2)no1` ?
Solution: 106

Exercise: Quick check: nuclei count of `CCN(CC)C(=O)Oc1ccccc1NC(C)=O` ?
Solution: 85.8

Exercise: Quick check: nuclei count of `COc1ccc2oc(C)c(C(=O)Cn3ccnc3)c2c1` ?
Solution: 54.3

Exercise: Quick check: nuclei count of `N#Cc1c(N)nc(SCc2ccncc2)c(C#N)c1-c1cccs1` ?
Solution: 32.8

Exercise: Quick check: nuclei count of `CCOC(=O)CSc1cn2c(n1)CCC2` ?
Solution: 66.8

Exercise: Quick check: nuclei count of `Cc1cc(-c2ccccc2)c2nncn2n1` ?
Solution: 108

Exercise: Quick check: nuclei count of `COc1ccccc1-c1cn[nH]c(=S)n1` ?
Solution: 93

Exercise: Quick check: nuclei count of `COC(=O)c1ccc2c(=O)n(Cc3ccco3)c(SCC(=O)Nc3ccc(C)c(Cl)c3)nc2c1` ?
Solution: 115

Exercise: Quick check: nuclei count of CCOC(=O)CC(NS(=O)(=O)c1ccc(NC(C)=O)cc1)c1ccc(OCC)cc1 (stereo not drawn) ?
Solution: 95.7

Exercise: Quick check: nuclei count of `CCOC(=O)c1sc(NC(=O)CSc2nc3c(cc2C#N)CCC3)c(C#N)c1C` ?
Solution: 94.5

Exercise: Quick check: nuclei count of Cc1ccccc1N1CC(c2nc3ccccc3[nH]2)CC1=O (stereo not drawn) ?
Solution: 107

Exercise: Quick check: nuclei count of `O=C(NCc1ccco1)Nc1ccc2nsnc2c1` ?
Solution: 113

Exercise: Quick check: nuclei count of `CC(=O)Nc1ccc(S(=O)(=O)N2CCN(Cc3ccncc3)CC2)cc1` ?
Solution: 123

Exercise: Quick check: nuclei count of `O=C(O)CSc1ccc2ccccc2n1` ?
Solution: 106

Exercise: Quick check: nuclei count of CC(C)CC(NC(=O)OC(C)(C)C)C(=O)NC(C(=O)NC(C)C(N)=O)C(C)C (stereo not drawn) (Boc-Leu-Val-Ala-NH2; configuration not given here) ?
Solution: 116

Exercise: Quick check: nuclei count of `N#CCc1nc(CSc2nc3ccccc3s2)cs1` ?
Solution: 98

Exercise: Quick check: nuclei count of `CC(C)(C)c1cc(C(=O)O)nn1-c1ccccc1` ?
Solution: 94.2

Exercise: Quick check: nuclei count of `COC(=O)c1ccccc1NC(=O)Nc1cccs1` ?
Solution: 96.1

Exercise: Quick check: nuclei count of COc1ccc(OC(C)C(=O)N2CC(C)OC(C)C2)cc1 (stereo not drawn) ?
Solution: 97.2

Exercise: Quick check: nuclei count of C=CCC(Nc1ccco1)c1ccccc1 (stereo not drawn) ?
Solution: 112

Exercise: Quick check: nuclei count of `COc1cccc(N2CCN(c3c4c(nc5ncnn35)CCC4)CC2)c1` ?
Solution: 102

Exercise: Quick check: nuclei count of `Cc1cc(=O)[nH]c2c1cnn2Cc1ccccc1` ?
Solution: 79.2

Exercise: Quick check: nuclei count of `CCn1c(=O)cc(SCC(=O)Nc2ccc3c(c2)OCO3)c2ccccc21` ?
Solution: 97.6
